Cited source: PubChem BioAssay (NCI)

Tested on: MDA-MB-468 breast
PROTOCOL: NCI-60 one-dose screen, 48 h
CONDITION: 10 µM unless noted
Compounds without any hit were thinned out: in the full panel of roughly 83,000, 20% have a hit. Active and inactive are the calls of the source. How the source made its calls: active means growth percent below 10; inactive means the rest.
Labels: active, inactive

# COMPOUND, EXPERIMENTAL SYSTEM, LABEL CLASS
measured = [
    ("Oc1ccc(Cc2ccccc2Cl)c(O)c1", "MDA-MB-468 breast", "inactive"),
    ("C/C(=C\\c1ccc(OCC(=O)O)c(Cl)c1Cl)[N+](=O)[O-]", "MDA-MB-468 breast", "inactive"),
    ("O=C(Nc1ccc(F)cc1)c1c(NC(=O)C(F)(F)F)sc2c1CCCCC2", "MDA-MB-468 breast", "active"),
    ("S=C1CCCCCN1", "MDA-MB-468 breast", "inactive"),
    ("COc1cccc(/C=C/C(=O)c2c(C)nc3ccccc3c2/C=C/c2ccccc2)c1OC", "MDA-MB-468 breast", "inactive"),
    ("Cn1ccnc1C(=O)/C=C/c1ccc(C(=O)Nc2nc3ccccc3[nH]2)cc1", "MDA-MB-468 breast", "active"),
    ("C=C1C(=O)O[C@H]2[C@H]1CC/C(CNC(=O)C(C)c1ccc(CC(C)C)cc1)=C\\CC[C@@]1(C)O[C@@H]21 (stereo partly specified)", "MDA-MB-468 breast", "active"),
    ("CC(=O)c1c(O)cc2c3c1OC(C)(C)C1CCC(C)(CC31)O2 (stereo unspecified)", "MDA-MB-468 breast", "inactive"),
    ("O=C1Nc2cc(Cl)ccc2/C1=C\\c1ccc(OCc2ccc([N+](=O)[O-])cc2)cc1", "MDA-MB-468 breast", "inactive"),
    ("COc1ccc(/C=C(/c2ccccc2)[N+](=O)[O-])cc1", "MDA-MB-468 breast", "active"),
    ("N#Cc1cnn2c(-c3ccc(Cl)cc3)nc(NC3CC3)nc12", "MDA-MB-468 breast", "inactive"),
]

====

Test system: MDA-MB-468 breast
PROTOCOL: NCI-60 one-dose screen, 48 h (100 = growth as untreated, 0 = no growth, -100 = all killed)
CONDITION: 10 µM unless noted
The panel holds about 83,000 compounds, 20% with a hit somewhere; the sample as a whole holds those more often.
# growth annotations

# COMPOUND, READOUT UNITS, growth
measured = [
    ("CCOC(=O)CNP(=O)(OC[C@@H](Cc1ccccc1)NC(=O)c1cc2ccccc2s1)Oc1ccccc1 (stereo partly drawn)", "%", -5),
    ("CC[C@]1(O)C[C@H]2CN(CCc3c([nH]c4ccccc34)C(C(=O)OC)(c3cc4c(cc3OC)N(C)[C@H]3[C@@](O)(C(=O)OC)[C@H](OC(C)=O)[C@]5(CC)[C@@H]6C[C@@H]6CN6CC[C@]43[C@@H]65)C2)C1 (stereo partly drawn)", "%", 28.1),
    ("COc1cc(/C=C/C(=O)CC(=O)/C=C/c2cc(Br)c(OC)c(OC)c2)cc(Br)c1OC", "%", 97.2),
]

====

growth values by entry
Test system: MOLT-4 leukemia
PROTOCOL: NCI-60 one-dose screen, 48 h (100 = growth as untreated, 0 = no growth, -100 = all killed)
CONDITION: 10 µM
Method: Growth inhibition of the MOLT-4 human tumor cell line is measured as a screen for anti-cancer activity. Cells are grown in 96 well plates and exposed to the test compound for 48 hours. Compounds are tested at a single concentration, which is 10^-5 M for most compounds. The reported endpoint is percent growth (GI% or GIPRCNT), where numbers from 0 - 100% represent growth inhibition, and numbers from -100% - 0 represent cell death. For example, a value of 40 represents 60% growth inhibition. […]
Compounds without any hit were thinned out: in the full panel of roughly 83,000, 20% have a hit.

# LINE NOTATION, growth, %
measured = [
    ("Cc1cc(N=C2NC(=O)/C(=C/c3cc(C(C)(C)C)c(O)c(C(C)(C)C)c3)S2)n[nH]1", 11),
    ("O=C(Nc1ccc(Oc2ncnc3scc(Nc4n[nH]c(=S)s4)c23)cc1)C1(C(=O)Nc2cccc(C(F)(F)F)c2)CC1", 106),
    ("Cn1cc(/C=C(/SS/C(=C/c2cn(C)c3cccc(C(=O)O)c23)C(=O)O)C(=O)O)c2c(C(=O)O)cccc21", 111),
    ("O=C(O)CCN1C(=O)/C(=C/C=C/c2ccc([N+](=O)[O-])o2)SC1=S", -20.4),
]

====

System: MDA-MB-468 breast
PROTOCOL: NCI-60 one-dose screen, 48 h
CONDITION: 10 µM unless noted
This is part of a sample that, as a whole, favours compounds with a hit. Of some 83,000 tested, about 20% had one in any assay. Active and inactive are the calls of the source. How the source made its calls: active means growth percent below 10; inactive means the rest.
Labels: active, inactive

# COMPOUND, LABEL CLASS
data = [
    ("Cn1cc(-c2csc(-c3cn(CCCN4CCCCC4)c4ccc(Br)cc34)n2)c2cccnc21", "inactive"),
    ("O=c1c2cc(Br)cc(Br)c2nc(-c2ccc(Cl)cc2)n1/N=C\\c1ccccc1F", "inactive"),
    ("CCCn1cc(/C=N\\N=C2\\C(=O)Nc3ccc(C)cc32)c2ccccc21", "inactive"),
    ("N=C(N)c1nn(C2OC(CO)C(O)C2O)c2nc[nH]c(=O)c12 (centres undefined)", "active"),
    ("Cc1ccccc1CNc1ncnc2[nH]ncc12", "inactive"),
    ("Cc1cc(N2CCC(N3CCCC3)CC2)nc(/N=C(\\N)Nc2ccc(Cl)c(Cl)c2)n1", "active"),
    ("CCCCCc1ccc(S(=O)(=O)Nc2cc(-c3csc(N)n3)ccc2OC)cc1", "inactive"),
    ("COC(=O)CC[C@@H](C)[C@H]1CC[C@H]2C3CC[C@@H]4C[C@@H]5CC[C@]4(C)[C@@]3(O5)[C@H](Br)[C@@H](Br)[C@]12C (some centres undefined)", "inactive"),
    ("CC(=O)N1N=C(C2C(=O)N(C)C(=O)N(C)C2=O)CC1c1ccccc1C(=O)O (centres undefined)", "inactive"),
]

====

Tested on: MDA-MB-468 breast
PROTOCOL: NCI-60 one-dose screen, 48 h
CONDITION: 10 µM unless noted
Compounds without any hit were thinned out: in the full panel of roughly 83,000, 20% have a hit. The source made the active and inactive calls. How the source made its calls: active means growth percent below 10; inactive means the rest.
Classes used: active, inactive

# COMPOUND, EXPERIMENTAL SYSTEM, LABEL CLASS
rows = [
    ("c1cncc(-c2csc(-c3c[nH]c4ccccc34)n2)c1", "MDA-MB-468 breast", "inactive"),
    ("Cc1cc(N2CCCCCC2)nc(NC2CCCC(Nc3ccnc4cc(Cl)ccc34)C2)n1 (stereo unspecified)", "MDA-MB-468 breast", "active"),
    ("O=C(Nc1ccc(OS(=O)(=O)c2ccc(F)cc2)cc1)C12CC3CC(CC(C3)C1)C2", "MDA-MB-468 breast", "inactive"),
    ("Cc1cc(C)nc(NC(N)=NCCc2ccccc2)n1", "MDA-MB-468 breast", "active"),
    ("ClC1=C(Br)C(Br)(Br)C(=C(Br)Br)C1(Br)Br", "MDA-MB-468 breast", "inactive"),
    ("COc1ccc(S(=O)(=O)N2CCN(C)CC2)cc1NC(=O)c1[nH]c(C)c2c1CCCCC2=O", "MDA-MB-468 breast", "inactive"),
    ("CN1CCN(c2ccc(-c3cnc4c(-c5csc6ccccc56)cnn4c3)cc2)CC1", "MDA-MB-468 breast", "active"),
    ("N/C(=N\\C(N)=N\\c1nc2ccccc2s1)c1ccc(Cl)cc1", "MDA-MB-468 breast", "inactive"),
    ("O=C(Nc1ccc(Br)cc1F)c1cc(F)ccc1O", "MDA-MB-468 breast", "active"),
    ("Cc1ccc2c(n1)C(=O)C(Br)=C(C1CCCC1)C2=O", "MDA-MB-468 breast", "inactive"),
    ("O=C(CCc1nnc(-c2c(Cl)cccc2Cl)o1)c1nc2ccccc2[nH]1", "MDA-MB-468 breast", "active"),
]

====

System: MDA-MB-468 breast
PROTOCOL: NCI-60 one-dose screen, 48 h (100 = growth as untreated, 0 = no growth, -100 = all killed)
CONDITION: 10 µM unless noted
Protocol: Growth inhibition of the MDA-MB-468 human Breast tumor cell line is measured as a screen for anti-cancer activity. Cells are grown in 96 well plates and exposed to the test compound for 48 hours. Compounds are tested at a single concentration, which is 10^-5 M for most compounds. The reported endpoint is percent growth (GI% or GIPRCNT), where numbers from 0 - 100% represent growth inhibition, and numbers from -100% - 0 represent cell death. […]
About 83,000 compounds went through this panel and 20% of them were active in at least one assay; those are over-represented in the sample as a whole.
// values below are reported growth

# MOLECULE, growth / %
rows = [
    ("O=C1c2ccccc2NC(n2sc3ccccc3c2=O)N1c1ccccc1 (configuration not stated)", 106),
    ("CC(=O)CS(C)(=O)=O", 109),
    ("Cc1nc2ccccc2c(/C=C/c2ccc(Cl)cc2)c1C(=O)/C=C/c1ccccc1", 12.7),
    ("O=C1Nc2ccccc2/C1=C/c1nc2ccccc2c(=O)[nH]1", 93),
    ("CC[N+](CC)=c1sc2c(s1)C(c1ccc(Cl)cc1)Oc1ccc(Cl)cc1-2 (configuration not stated)", -4.17),
    ("Clc1ccc(Cc2ccncc2)cc1", 99.2),
    ("Cc1ccc(-n2nnnc2N)c(C)c1", 115),
    ("COc1ccccc1-n1c(-c2cc(O)ccc2C)cn2c3c(=O)[nH]c(=O)n(C)c3nc12", 92.3),
    ("CCc1c2cc(Cl)ccc2n2cc(Cc3ccccc3)[nH]c(=O)c12", 115),
    ("COc1cc(C2CC(c3ccccc3)=NN2C=O)ccc1Oc1nc2c(c(=O)n(C)c(=O)n2C)n1C (configuration not stated)", 63.9),
    ("O=C(Cn1ccc(=O)[nH]c1=O)c1ccc([N+](=O)[O-])o1", 44.4),
    ("COc1ccc(Oc2nc(Nc3ccc(N4CCOCC4)nc3)ncc2NC(=O)c2cc(OC)cc(OC)c2)cc1", 82.1),
    ("Cc1cc(N/N=C/c2nc(-c3ccc(Br)cc3)oc2C)c2cc(Br)ccc2n1", -5.21),
    ("CCCCCCCCCC(=O)Oc1ccc(/C(=C(/C)Cc2cccc(OC)c2)c2ccc(OCCN(C)C)cc2)cc1", 103),
    ("CCN(CC)c1ccc2c(c1)Oc1nc(N)c(C#N)c(N)c1C2Sc1ccc(C)cc1 (configuration not stated)", -88.4),
    ("Cc1c(CC(=S)N2CCOCC2)nnn1-c1cccc(C(F)(F)F)c1", 117),
    ("COc1cc(-c2cc3ncccc3c3nc(OCCN(C)C)c4cccnc4c23)cc(OC)c1OC", -6.09),
    ("C=CCNC(=S)NNc1ccc([N+](=O)[O-])cn1", 98.7),
    ("CN1CCN(Cc2ccc(NC(=O)c3cncc(C#Cc4cnc5ccc(N6CCN(C)CC6)nn45)c3)cc2C(F)(F)F)CC1", -75.2),
    ("O=C(CC(O)c1ccccc1)Nc1ccccn1 (configuration not stated)", 119),
    ("C=CCS(C)(=O)=O", 95.9),
    ("O=C(Nc1cccc(Cn2c(=O)[nH]c3ccc(Oc4ncccn4)cc3c2=O)c1)c1cccc(F)c1", 49.8),
]
